Tested on: Mus musculus
Assay: Percent change from vehicle in locomotor activity in mice at 0.3 mg/kg (ip) in 3 h
Type: functional
Exercise: state measured Change for each of the molecules provided.
One number for each entry, in %.

Previously resolved entries follow.
[[record]]
molecule = "Cc1ccc(C2CC3CCC(C2c2cc(-c4ccc(Cl)cc4)no2)N3C)cc1 (centres undefined)"
data_value = -58

[[record]]
molecule = "Cc1ccc(C2CC3CCC(C2c2ccno2)N3C)cc1 (centres undefined)"
data_value = 136

[[record]]
molecule = "CN1C2CCC1C(c1ccno1)C(c1ccc(Cl)cc1)C2 (centres undefined)"
data_value = 70

[[record]]
molecule = "Cc1ccc(-c2cc(C3C(c4ccc(C)cc4)CC4CCC3N4C)on2)cc1 (centres undefined)"
data_value = 102

[[record]]
molecule = "Cc1ccc(C2CC3CCC(C2c2cc(C)no2)N3C)cc1 (centres undefined)"
data_value = 75

[[record]]
molecule = "CCc1cc(C2C(c3ccc(C)cc3)CC3CCC2N3C)on1 (centres undefined)"
data_value = 173


Parameters: items (list). Returns: Change for each item.
1. Cc1cc(C2C(c3ccc(Cl)cc3)CC3CCC2N3C)on1 (centres undefined)
2. CC(C)c1cc(C2C(c3ccc(Cl)cc3)CC3CCC2N3C)on1 (centres undefined)
3. CCc1cc(C2C(c3ccc(Cl)cc3)CC3CCC2N3C)on1 (centres undefined)

Key:
[735, -21, 224]

====

Target: UniProtKB P31652
Sequence (P31652 whole entry): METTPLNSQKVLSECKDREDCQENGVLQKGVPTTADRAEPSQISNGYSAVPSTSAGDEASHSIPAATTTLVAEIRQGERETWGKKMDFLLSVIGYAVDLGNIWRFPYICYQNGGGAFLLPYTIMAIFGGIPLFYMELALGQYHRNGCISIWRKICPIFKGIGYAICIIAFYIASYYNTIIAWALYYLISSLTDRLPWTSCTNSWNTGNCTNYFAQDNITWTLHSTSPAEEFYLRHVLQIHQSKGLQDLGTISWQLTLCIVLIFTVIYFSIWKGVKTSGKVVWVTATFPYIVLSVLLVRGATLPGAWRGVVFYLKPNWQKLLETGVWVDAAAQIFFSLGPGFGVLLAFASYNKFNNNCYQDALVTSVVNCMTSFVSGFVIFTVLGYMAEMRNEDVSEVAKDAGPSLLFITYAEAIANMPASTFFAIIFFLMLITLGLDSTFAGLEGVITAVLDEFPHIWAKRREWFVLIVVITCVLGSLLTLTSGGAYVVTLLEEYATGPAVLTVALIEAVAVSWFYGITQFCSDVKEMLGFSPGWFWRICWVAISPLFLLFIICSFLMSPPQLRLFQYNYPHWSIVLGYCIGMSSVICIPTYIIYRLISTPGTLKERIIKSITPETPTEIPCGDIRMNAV
pKi: −log10 of the molar value.
Classification field: enter Met for pKi values not below 6, Not met for values below it.

The following compounds have reported results that may help.
[[record]]
compound = "CN1C2CCC1C(c1cc(C(C)(C)C)no1)C(c1ccc(Cl)cc1)C2 (stereo not drawn)"
label_value = "Not met"

[[record]]
compound = "CN1C2CCC1C(c1ccno1)C(c1ccc(Cl)cc1)C2 (stereo not drawn)"
label_value = "Met"

[[record]]
compound = "Cc1cc(C2C(c3ccc(Cl)cc3)CC3CCC2N3C)on1 (stereo not drawn)"
label_value = "Met"

[[record]]
compound = "Cc1ccc(C2CC3CCC(C2c2ccno2)N3C)cc1 (stereo not drawn)"
label_value = "Met"

[[record]]
compound = "COc1ccc(-c2cc(C3C(c4ccc(Cl)cc4)CC4CCC3N4C)on2)cc1 (stereo not drawn)"
label_value = "Met"

[[record]]
compound = "Cc1ccc(-c2cc(C3C(c4ccc(Cl)cc4)CC4CCC3N4C)on2)cc1 (stereo not drawn)"
label_value = "Met"


Exercise: Determine whether measured pKi meets or exceeds 6 for COc1ccc(-c2cc(C3C(c4ccc(C)cc4)CC4CCC3N4C)on2)cc1 (stereo not drawn)
Key: Met

Exercise: Next compound up: CN1C2CCC1C(C(=O)Oc1ccccc1)C(c1ccc(Cl)cc1)C2 (stereo not drawn)
Key: Not met

Exercise: Next compound up: CC(C)c1cc(C2C(c3ccc(Cl)cc3)CC3CCC2N3C)on1 (stereo not drawn)
Key: Met

Exercise: Next compound up: CCc1cc(C2C(c3ccc(C)cc3)CC3CCC2N3C)on1 (stereo not drawn)
Key: Met

Exercise: Next compound up: Cc1ccc(C2CC3CCC(C2c2cc(-c4ccccc4)no2)N3C)cc1 (stereo not drawn)
Key: Met

====

System: Mus musculus
Test: Percent change from vehicle in locomotor activity in mice at 0.3 mg/kg (ip) in 4 h
Type: functional
Endpoint: Change

[[record]]
molecule = "CC(C)c1cc(C2C(c3ccc(Cl)cc3)CC3CCC2N3C)on1 (stereo unspecified)"
data_value = "-39%"

[[record]]
molecule = "CN1C2CCC1C(c1ccno1)C(c1ccc(Cl)cc1)C2 (stereo unspecified)"
data_value = "-20%"

[[record]]
molecule = "CCc1cc(C2C(c3ccc(C)cc3)CC3CCC2N3C)on1 (stereo unspecified)"
data_value = "-72%"


Parameters: items (list). Returns: Change for each item.
1. Cc1ccc(C2CC3CCC(C2c2cc(C)no2)N3C)cc1 (stereo unspecified)
2. Cc1ccc(-c2cc(C3C(c4ccc(C)cc4)CC4CCC3N4C)on2)cc1 (stereo unspecified)
3. Cc1ccc(C2CC3CCC(C2c2ccno2)N3C)cc1 (stereo unspecified)

Key:
1: 48%; 2: -48%; 3: -28%
